Attribution: the DeepSol protein solubility set

Procedure Summary: soluble on expression in E. coli; label from the status in PepcDB or PDB records
Quantity Name: soluble on expression in E. coli

| Residue String | Quantity Name | Measurement |
| --- | --- | --- |
| MDSMDHRIERLEYYIQLLVKTVDMDRYPFYALLIDKGLSKEEGEAVMRICDELSEELATQKAQGFVTFDKLLALFAGQLNEKLDVHETIFALYEQGLYQELMEVFIDIMKHFD | soluble on expression in E. coli | soluble |
| KVDKKTYKNLIVELQQRMREIQFALYERKIPLVLVFEGMDAAGKGGNIKRIREKLDPTGYEVNGISAPTDVELKHHYLWRFAKKMPKSGHIEIFDRSWYGRVLVERVEGFASQNEWQRASDEINQFEKMWTDEGTIILKFFLCLDKDEQLKRFKDRENNPDKQWKITEEDWRNREKWDEYLEASHDMIESTNTSYAPWYIVPADHKKTSRIEVLKTIIRKCEEVLWGVKTY | soluble on expression in E. coli | not soluble |
| MGSDKIHHHHHHMSEAKMAESDGLRVLIDEPFYQPVANEVRVFLAAWDRRLPVMLKGPTGCGKTRFLEHMAWRLKRPLVTVACHEDLTSSDLIGRFLIEGNETVWQDGPLTRAVREGAICYLDEIVEARTDTTVVIHPLTDHRRHLPIEKLGIEITAHRDFMLVISYNPGYQTVLKDLKPSTKQRFVGMNFNYPPADVETCIVMKEAGVDEGRAKALVAAAGKARNLKEQGLQEVTSTRALIYAGALMVAGLDALEACVVAIIHPQTDDPELAEALLEIFRTFFPEQG | soluble on expression in E. coli | not soluble |
| MKPLRSPWVMRALARFFSGYIALTYKTLRWTREGQAIADRVQAEALASGGGAILALWHSRVPVGPATWPQGPDKPEIRVLVSQSRDGEFIARVIARLGLPSIRGSSLKKTDTAKNKGGEQAFRDMVKWVKDGGAMAITPDGPRGPVEVMQKGAVALARVSGAPVLFVGVAVNPCIRLKTWDRTIIPLPFAKAAMVWDGPVHAGRDDDPDAVVEAWGARLSAVSRRAEAIVGETPPKDLEHHHHHH | soluble on expression in E. coli | not soluble |
| MGSDKIHHHHHHMRRKIPSSTTLMAFEVAARHGSFARAAEELSLTEGAISRQIGRLEAFLGVTLFERVGNRVRLLPNGERYAAQVRESLDRLDRDSQYLMGQPSDGASLDIATIPTFAMRWLIPRLSRFQQKHPNITVHLAERMDPFVLAGSGFDAAIHFEHPAWTGMRTHQLLHEVLVPVCHPELLTGRKRKTALDELPRLHRRQNPEAWLQYSQETGTPLTNPAIGARYDLHGMLIEAALAGLGVALVPRLYVETELALGNLVAPWPEGKTISKTFCLILPEPIGLSREPIQAFAQWLLDEAKKGNSG | soluble on expression in E. coli | not soluble |
| GMDDQSGDQMRPELTMPPAEAEALRMAYEEAEVILEYGSGGSTVVAAELPGKHVTSVESDRAWARMMKAWLAANPPAEGTEVNIVWTDIGPTGDWGHPVSDAKWRSYPDYPLAVWRTEGFRHPDVVLVDGRFRVGCALATAFSITRPVTLLFDDYSQRRWQHQVEEFLGAPLMIGRLAAFQVEPQPIPPGSLMQLIRTMTSP | soluble on expression in E. coli | soluble |

###

Procedure Summary: soluble on expression in E. coli; label from the status in PepcDB or PDB records

| Residue String | soluble on expression in E. coli |
| --- | --- |
| MSLSSKLRLQLDAHASIHENVRRLLQFTTSIMEANEEGIRKDIDSEFLHDFRVAIRRSRSILRLLNGVFDPEKTAWMLAGLRELGKRTNDLRDSDVYLLRREEYTSLLPPSLRPALDPFFSDLEADKRLHHRQFCRYLTGREYSGFMTSLKEFIAEGELPDPETAPLAAEPTGDVAAKTIRKALKKVLVHGRRTGSETSDAELHELRIDCKKLRYLLEFFASLFPPKATAQVLRQMKTLQDNLGTFVDLTVQMEFLQSRLETIPADRGGISEAAAIGGLLTTLYRKREKVREHFHEIFSGFDSNETGELFDELLTGLAEGHHHHHH | soluble |
| MAHHHHHHMGDESNAIGQEALLYDKMFRVMRTVGEMMCDRKYQVADKIIPSSVEEFKDWYTDPREGVIYRDRMTVPCERIGVSQRSRAMVFFSEGLSMETMKRYHTQASEANCDRVIIVVQGRINAIVKRHVEDINRSSLGLKIQLFDEDDLVVNITHHELVPKHTQLEDEEVKEMLQAHALELSALPRILSTDPVAAYLGLERGRVVRIERKSMSAGFYVTYRQVV | not soluble |
| MSMSSTVIKFRAGVCEYNEDSRLCTPIPVQGEIEIKPNEEEELGFWDFEWRPTEKPVGRELDPISLILIPGETMWVPIKSSKSGRIFALVFSSNERYFFWLQEKNSGNLPLNELSAKDKEIYNKMIGVLNNSSESDEEESNDEKQKAQDVDVSMQD | soluble |
| MSLTVVQLTDIHFQWPYPYVTKKKLASIVEKVNEINPDFIFLTGDFISRYRTYNISKYNTETIAFYLGQLRAKRGIYAIQGNNDRCAGDMLLKAFKENGVRMLMNEGIIDDDISITGILSSKNIDICNTWLNQTKIPDAPLKILLSHQPDTALVTYPFFDLQFSGHTHGGQCIAPFGIGPILHPKMGHKFIVGVYKIGNMILHVSTGIGISPLPKPLVRFNNIAEVSVIRVVPEEGHHHHHH | not soluble |

###

Procedure Summary: soluble on expression in E. coli; label from the status in PepcDB or PDB records
Quantity Name: soluble on expression in E. coli

| Residue String | Measurement |
| --- | --- |
| MQVLRLMALPLFALSLSVSITGCDQKNDTLQGKQNNMTAFIKKIAASKESEETQRYVGNLNGIEIKLTYYYKGDIVLRQISEHKLLYKTLKANNKEEAQKMLSQVGEAYQGMPGLTERIDYYDSYATEYVDINFTQAKISDLCKLPGSSIDNCSAYYLSMIRSQKLLEESGYHRIN | not soluble |
| MSLYLEKYYYEKNIQEEFFKFLYSMTGKKEEIVVICIGDPVFEGNILAPLVGTLLHERNIPNVYGTLKEPVYEINIKEIYNKILKKYDNPYIILVASSFPVDFHDEREVIVLKNDPYEIQTASGSLKLGNASFIVVFDLEDSYCKVNFIEKLGIRKIYKYSEAIFKTLYYILHNKNYVKEGHHHHHH | soluble |
| MSLSDGDYDYLIKFLALGDSGVGKTSVLYQYTDGKFNSKFITTVGIDFREKRVVYRASGPDGATGRGQRIHLQLWDTAGQERFRSLTTAFFRDAMGFLLLFDLTNEQSFLNVRNWISQLQMHAYCENPDIVLCGNKSDLEDQRVVKEEEAIALAEKYGIPYFETSAANGTNISQAIEMLLDLIMKRMERCVDKSWIPEGVVRSNGHASTDQLSEEKEKGACGCEGHHHHHH | soluble |
| AKIYDKNGELVKTLDNGQRHEHVNIKDVPKDMKNAVLATEDNRFYQHGALDYKRLFGAIGKNLTGGFGSQGASTLTQQVVKDSFLTQQKSIGRKAQEAYLSYRLEQEYSKDEIFQVYMNKIYYSDGVTGIKAAAKYYFNKDMKDLNLAEEAYLAGLPQVPNLYNIYNNP | not soluble |
| MSELWYTEKQTKNFGITMKVNKTLHTEQTEFQHLEMVETEEFGNMLFLDGMVMTSEKDEFVYHEMVAHVPLFTHPNPEHVLVVGGGDGGVIREILKHPSVKKATLVDIDGKVIEYSKKFLPSIAGKLDDPRVDVQVDDGFMHIAKSENQYDVIMVDSTEPVGPAVNLFTKGFYAGIAKALKEDGIFVAQTDNPWFTPELITNVQRDVKEIFPITKLYTANIPTYPSGLWTFTIGSKKYDPLAVEDSRFFDIETKYYTKDIHKAAFVLPKFVSDLIKLEHHHHHH | soluble |
| MGHHHHHHSHMTWKGGGGWMAAVTQGPGITWGSLLPSAVRQGEQKCKNTDVSIFLNWGVEGCLLTASKELTVEGPQCIPPLPESLSPLGPPGSQSSEETDPSCFNSCCCFSLWAGPGRGRAEQAPGGLQSQLDLAVSPAGSPADTGEVG | not soluble |

###

Procedure Summary: soluble on expression in E. coli; label from the status in PepcDB or PDB records

| Residue String | soluble on expression in E. coli |
| --- | --- |
| AVNEENIMIPKGVEVYEITGPYFFGIATKFEETMAQLGDRPNVRIIRMRKVPFIDSTGIHNLTTLCEMSQKEKITVILSGVNEKVYKVLEKSGFYELLGKENICPNFKIALDRAEEVMK | soluble |
| MSLDKVERRLYELYEKAINYEPLSKEEALYILEVDDIYVPFLVHLAQKIKKHYFPENEVEFCSIINAKSGACSEDCKFCAQSKYYKTPINVYNLVPVDEMVEGAIRGVEFGANRYCIVLSGKSATKEEVERITEAVKEIKNEGLPINVCVSAGTLDEESLKKLKEAGVKRINHNLETSRNFFKNIVTTHTWEDRYETIKRIKKVGLSTCSGGIFGMGESNEDRVDMALTYRELEVDSIPLNFLMPIEGTPMENAPGVEVMEALKIIAMFRFTNPKAELRLCGGREQNLRDFHGMATLMTNAMMVGGYLTRAGRDIKKDYQLLKDLKAKRKVSVEEGHHHHHH | soluble |
| ILEQDLNDFMSTGAHGLDLYQLVVGGTAPMLNLVEKGKIPPPATTPEKAGMYELGVNFMAKHHMKQLSVNHWAVDNRERSLYNSLAKTYAE | not soluble |
| MGSDKIHHHHHHMLNMNFDEQVFINTQEQPWVASPKAGVWRKPLAREDAERGHATSLVKFDPGASFTEHDHPLGEEILVLSGTFSDHTGDYHAGSYFRNPEGFRHAPFSKDGCILLVKLHQFQSGDNEHVVIDTANKSWSPGMGNLMVMPLHSFEGESTALVKWPKDERFQPHKHFGGEEIFVISGEFIDEHGRYPEGSWIRSPHLSEHFPYVEQETIILVKVGHL | not soluble |
